- System: CEM cells HIV-1 protection, formazan growth assay
- MEASUREMENT DESCRIPTION: NCI AIDS Antiviral Assay
- CONDITIONS: measured here: growth of uninfected CEM cells
Field: IC50. Provide a value for each of the compounds that follow.

Param readout = IC50; param system = CEM cells HIV-1 protection, formazan growth assay; param query = CC(C)c1ccc2c(c1)CCC1C(C)(C)[C@@H](O)CC[C@]21C (stereo partly specified) ; response: value
37.2 µM

Param readout = IC50; param system = CEM cells HIV-1 protection, formazan growth assay; param query = O=[N+]([O-])c1ccccc1/C=C/c1ccccn1 ; response: value
> 16.6 µM

Param readout = IC50; param system = CEM cells HIV-1 protection, formazan growth assay; param query = COC(=O)c1cc(C(=O)OC)c(CC(=O)C(=O)NC2C3CC4CC(C3)CC2C4)nc1CC(=O)C(=O)NC1C2CC3CC(C2)CC1C3 (stereo unspecified) ; response: value
> 282 µM

Param readout = IC50; param system = CEM cells HIV-1 protection, formazan growth assay; param query = COc1ccc(/C=C2\N=C(N3CCOCC3)NC2=O)cc1 ; response: value
> 200 µM

Param readout = IC50; param system = CEM cells HIV-1 protection, formazan growth assay; param query = CC1(C)CC(/C=C2/OC(=O)c3ccccc32)=C(C#N)C(=O)O1 ; response: value
> 33.9 µM

Param readout = IC50; param system = CEM cells HIV-1 protection, formazan growth assay; param query = O=C(O)C1C2CC(C1C(=O)O)C1C2N1S(=O)(=O)c1ccccc1 (stereo unspecified) ; response: value
> 741 µM
